measured.target: Protein cereblon/Tyrosine-protein kinase BTK (Homo sapiens, UniProt Q06187+Q96SW2)
method.summary: Binding affinity to BTK/CRBN (unknown origin) assessed as ternary complex formation measured after 60 mins incubation by HTRF assay
Sequence (Q06187 whole entry): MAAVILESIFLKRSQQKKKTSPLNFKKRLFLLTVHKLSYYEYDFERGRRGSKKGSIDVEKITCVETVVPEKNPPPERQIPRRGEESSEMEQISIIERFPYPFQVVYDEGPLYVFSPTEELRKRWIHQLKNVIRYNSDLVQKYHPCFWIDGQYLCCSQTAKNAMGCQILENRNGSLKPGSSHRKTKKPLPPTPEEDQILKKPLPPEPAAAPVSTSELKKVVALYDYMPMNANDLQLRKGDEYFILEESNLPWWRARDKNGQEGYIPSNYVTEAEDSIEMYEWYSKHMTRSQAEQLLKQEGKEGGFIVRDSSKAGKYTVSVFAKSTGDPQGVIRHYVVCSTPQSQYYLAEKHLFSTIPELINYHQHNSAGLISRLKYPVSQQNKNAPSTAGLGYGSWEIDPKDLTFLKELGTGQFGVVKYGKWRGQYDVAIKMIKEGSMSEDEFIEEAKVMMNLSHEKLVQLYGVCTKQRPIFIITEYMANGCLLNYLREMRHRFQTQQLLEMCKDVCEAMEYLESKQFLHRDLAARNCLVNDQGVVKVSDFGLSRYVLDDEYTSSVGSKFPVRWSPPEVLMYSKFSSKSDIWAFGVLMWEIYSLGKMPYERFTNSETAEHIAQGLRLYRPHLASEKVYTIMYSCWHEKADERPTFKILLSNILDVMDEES
Sequence (Q96SW2 whole entry): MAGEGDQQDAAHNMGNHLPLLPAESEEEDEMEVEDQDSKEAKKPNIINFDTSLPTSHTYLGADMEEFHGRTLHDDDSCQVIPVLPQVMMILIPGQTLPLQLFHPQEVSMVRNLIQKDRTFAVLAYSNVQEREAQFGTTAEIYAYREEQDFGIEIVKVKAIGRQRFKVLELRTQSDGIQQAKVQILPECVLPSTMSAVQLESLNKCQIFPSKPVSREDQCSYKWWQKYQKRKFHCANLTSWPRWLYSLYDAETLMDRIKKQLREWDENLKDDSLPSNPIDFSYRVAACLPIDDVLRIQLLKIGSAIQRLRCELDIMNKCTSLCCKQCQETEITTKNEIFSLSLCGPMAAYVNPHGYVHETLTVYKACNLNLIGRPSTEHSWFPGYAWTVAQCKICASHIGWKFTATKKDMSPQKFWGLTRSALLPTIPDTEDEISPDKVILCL
measured.metric: EC50 (nM)

(A) Nc1ncnc2c1c(-c1ccc(Oc3ccccc3)cc1)nn2C1CCN(C(=O)CN2CCN(CC3CN(c4ccc5c(c4)C(=O)N(C4CCC(=O)NC4=O)C5=O)C3)CC2)CC1 (configuration not stated)
(B) Cc1cc(-c2nc(Nc3cnn(C4CCN(CC5CCN(c6ccc7c(c6)C(=O)N(C6CCC(=O)NC6=O)C7=O)CC5)CC4)c3)ncc2F)ccc1CNC(=O)c1cn(C(C)(C)C)nn1 (configuration not stated)
# return whichever of A and B has the smaller EC50 Pick one; state its label. A
(A: 2.74 nM, B: 4.28 nM)

###

measured.target: Tyrosine-protein kinase BTK (Homo sapiens)
measured.metric: IC50 (nM)
Enter your answer as a number in nM; do not include the unit.

What IC50 appears in the records for this compound with Tyrosine-protein kinase BTK (Homo sapiens)? Cc1cc(-c2nc(Nc3cnn(C4CCN(CC5CCN(c6ccc7c(c6)C(=O)N(C6CCC(=O)NC6=O)C7=O)CC5)CC4)c3)ncc2F)ccc1CNC(=O)c1cn(C(C)(C)C)nn1 (stereo unspecified) 299

###

measured.target: Protein cereblon/Tyrosine-protein kinase BTK (Homo sapiens, UniProt Q06187+Q96SW2)
method.summary: PROTAC activity at BTK/CRBN in human MINO cells assessed as BTK protein degradation at 20 nM measured after 24 hrs by Western blotting analysis relative to control
Type: cell-based
Sequence (Q06187 2-659 limits assumed): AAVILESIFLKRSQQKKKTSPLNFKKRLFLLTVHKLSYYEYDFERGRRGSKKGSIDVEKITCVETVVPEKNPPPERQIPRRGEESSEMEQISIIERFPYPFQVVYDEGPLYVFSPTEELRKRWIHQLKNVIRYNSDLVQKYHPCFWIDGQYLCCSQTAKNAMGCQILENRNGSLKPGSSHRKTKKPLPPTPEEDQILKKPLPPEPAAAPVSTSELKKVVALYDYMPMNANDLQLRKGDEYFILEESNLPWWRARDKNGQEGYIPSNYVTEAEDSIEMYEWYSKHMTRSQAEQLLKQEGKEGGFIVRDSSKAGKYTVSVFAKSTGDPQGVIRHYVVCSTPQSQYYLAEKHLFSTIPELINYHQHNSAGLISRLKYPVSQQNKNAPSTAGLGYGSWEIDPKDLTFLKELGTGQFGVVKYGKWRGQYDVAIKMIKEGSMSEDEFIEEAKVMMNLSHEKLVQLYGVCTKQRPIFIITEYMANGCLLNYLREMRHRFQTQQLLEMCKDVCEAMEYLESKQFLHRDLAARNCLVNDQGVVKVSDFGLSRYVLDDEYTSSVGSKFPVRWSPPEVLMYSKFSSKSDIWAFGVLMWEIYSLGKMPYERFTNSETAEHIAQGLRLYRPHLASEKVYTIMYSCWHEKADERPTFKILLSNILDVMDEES
Sequence (Q96SW2 whole entry partner): as the sequence (Q96SW2 whole entry) above
measured.metric: Activity (%)

Known results for compounds:
[[record]]
compound = "Cc1cc(-c2nc(Nc3cnn(C4CCN(CC5CCN(c6ccc7c(c6)C(=O)N(C6CCC(=O)NC6=O)C7=O)CC5)CC4)c3)ncc2F)ccc1CNC(=O)N1CC(OC(C)C)C1 (stereo unspecified)"
experimental_value = 80

[[record]]
compound = "Cc1cc(-c2nc(Nc3ccn(C4CCN(CC5CCN(c6ccc7c(c6)C(=O)N(C6CCC(=O)NC6=O)C7=O)CC5)CC4)n3)ncc2F)ccc1CNC(=O)c1cn(C2CC2)nn1 (stereo unspecified)"
experimental_value = 99

[[record]]
compound = "Nc1ncnc2c1c(-c1ccc(Oc3ccccc3)cc1)nn2C1CCN(C(=O)CN2CCN(CC3CN(c4ccc5c(c4)C(=O)N(C4CCC(=O)NC4=O)C5=O)C3)CC2)CC1 (stereo unspecified)"
experimental_value = 95

[[record]]
compound = "Cc1cc(-c2nc(Nc3cnn(C4CN(CC5CCN(c6ccc7c(c6)C(=O)N(C6CCC(=O)NC6=O)C7=O)CC5)C4)c3)ncc2F)ccc1CNC(=O)c1cn(C(C)(C)C)nn1 (stereo unspecified)"
experimental_value = 99


(1) Cc1cc(-c2nc(Nc3ccn(C4CN(CC5CCN(c6ccc7c(c6)C(=O)N(C6CCC(=O)NC6=O)C7=O)CC5)C4)n3)ncc2F)ccc1CNC(=O)c1noc(C(C)(C)C)n1 (stereo unspecified)
(2) Cc1cc(-c2nc(Nc3ccn(C4CCN(CC5CCN(c6ccc7c(c6)C(=O)N(C6CCC(=O)NC6=O)C7=O)CC5)CC4)n3)ncc2F)ccc1CNC(=O)c1noc(C2CC2)n1 (stereo unspecified)
Hey, between 1 and 2 which has a smaller measured Activity? Indicate which entry you chose by stating its label. 2
(2: 0%, 1: 78%)
